Give normalized growth for every item shown.
# Protocol notes: chemical genetic growth profiling, strain panel (AID 1159580);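 further: tested at 20 µM; growth read once vehicle control cultures reached saturation at 30 °C; 1 = growth at the plate median or of vehicle wells; lower values mean less growth of the strain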
# Condition context: S. cerevisiae deletion strains, growth OD, locus YGL248W, strain PDE1, stronger effect = lower value
The whole screen tested about 5,500 compounds, of which about 2,000 (36%) were called active. About 18% were inconclusive and are not listed. The list shows a part of the results.
Answers are plain numbers.

Previously resolved entries follow.
COc1ccc(-c2cc(=O)c3c(O)cc(O[C@H]4O[C@H](CO[C@@H]5O[C@@H](C)[C@H](O)[C@@H](O)[C@H]5O)[C@@H](O)[C@H](O)[C@H]4O)cc3o2)cc1 : 1.01
C[C@@H]1O[C@@H](OC[C@H]2OC(Oc3c(-c4ccc(OCCO)c(OCCO)c4)oc4cc(OCCO)cc(O)c4c3=O)[C@H](O)[C@@H](O)[C@@H]2O)[C@H](O)[C@H](O)[C@H]1O (some centres undefined) : 0.965
O=c1c(O)c(-c2cc(O)c(O)c(O)c2)oc2cc(O)cc(O)c12 : 1.03

Note: attention shifts to another entry.
[in] Returns the measured normalized growth for the input molecule. Input: COc1cc(O)c2c(=O)c(O)c(-c3ccc(O)c(O)c3)oc2c1
[out] 0.915

Where these numbers come from: PubChem BioAssay AID1159580
